Experiment: In vivo pharmacokinetic experiment in rats
Details: male, rat, po; SD rats, 20 mg/kg p.o., plasma
QUANTITY_MEASURED: Tmax (min)
Answers are plain numbers, in min.

The reported value for Cl.N[C@]1(c2ccc(C(F)(F)F)cc2)CCC[C@H](O)C1=O [Compound 51] in terms of Tmax is 19.8

---

Field: IC50. Provide a value for each of the compounds that follow.
Molecular target: hERG potassium channel (Homo sapiens, UniProt Q12809)
Construct: expressed in transfected cells
Sequence (Q12809 whole entry): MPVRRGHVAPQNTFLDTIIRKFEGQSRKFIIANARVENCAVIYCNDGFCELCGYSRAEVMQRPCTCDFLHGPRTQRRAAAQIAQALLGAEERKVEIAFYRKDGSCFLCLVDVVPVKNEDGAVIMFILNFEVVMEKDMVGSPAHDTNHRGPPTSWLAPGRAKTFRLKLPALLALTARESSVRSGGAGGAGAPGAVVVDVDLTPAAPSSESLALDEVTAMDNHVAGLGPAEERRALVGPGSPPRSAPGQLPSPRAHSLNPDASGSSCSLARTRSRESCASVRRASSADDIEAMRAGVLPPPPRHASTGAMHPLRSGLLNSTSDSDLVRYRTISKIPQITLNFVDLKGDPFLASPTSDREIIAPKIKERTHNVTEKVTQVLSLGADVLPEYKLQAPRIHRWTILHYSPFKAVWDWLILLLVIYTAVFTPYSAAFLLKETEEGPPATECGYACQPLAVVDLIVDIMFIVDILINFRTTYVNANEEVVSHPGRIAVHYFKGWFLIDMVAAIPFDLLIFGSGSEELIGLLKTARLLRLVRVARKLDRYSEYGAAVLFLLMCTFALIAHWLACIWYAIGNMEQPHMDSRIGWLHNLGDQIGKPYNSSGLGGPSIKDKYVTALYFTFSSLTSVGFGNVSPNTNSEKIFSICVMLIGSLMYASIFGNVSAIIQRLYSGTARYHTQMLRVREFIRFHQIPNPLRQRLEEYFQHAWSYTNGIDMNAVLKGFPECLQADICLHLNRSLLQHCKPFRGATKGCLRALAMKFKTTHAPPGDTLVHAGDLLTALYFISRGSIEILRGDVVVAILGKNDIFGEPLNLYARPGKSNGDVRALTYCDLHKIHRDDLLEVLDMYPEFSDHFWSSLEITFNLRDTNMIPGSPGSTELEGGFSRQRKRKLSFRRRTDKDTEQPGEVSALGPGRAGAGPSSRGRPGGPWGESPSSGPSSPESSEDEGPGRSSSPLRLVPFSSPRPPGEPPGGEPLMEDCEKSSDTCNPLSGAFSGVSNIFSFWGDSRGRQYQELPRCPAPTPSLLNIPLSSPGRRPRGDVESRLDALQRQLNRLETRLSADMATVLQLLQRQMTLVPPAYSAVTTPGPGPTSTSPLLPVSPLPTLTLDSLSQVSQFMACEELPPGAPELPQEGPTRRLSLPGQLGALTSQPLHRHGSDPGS
Assay: hERG potassium channel inhibition experiment (automatic patch clamp, CHO-hERG cells)
Assay type: cell-based
Conditions: Qpatch, highest tested concentration 40 μM, read-out: IC50, blocking effect on the hERG potassium current
Where a name gives a salt, the structure may show the parent alone.

NC1(c2c(F)cc(F)cc2F)CCCC(O)C1=O (stereo not drawn) [Compound 73, hydrochloride]
> 40 µM
Cl.NC1(c2cccc(F)c2F)CCCC(O)C1=O (stereo not drawn) [Compound 44, hydrochloride]
> 40 µM
NC1(c2ccccc2C(F)(F)F)CCCC(O)C1=O (stereo not drawn) [Compound 45, hydrochloride]
> 40 µM
Cl.N[C@]1(c2ccc(C(F)(F)F)cc2)CCC[C@H](O)C1=O [Compound 51, hydrochloride]
> 40 µM
Cl.N[C@@]1(c2cccc(OC(F)(F)F)c2F)CCC[C@@H](O)C1=O [Compound 64, hydrochloride]
> 40 µM

Now for a further compound.
Lab note: measured IC50 of Cl.NC1(c2ccc(C(F)(F)F)cc2)CCCC(O)C1=O (stereo not drawn) [Compound 46, hydrochloride] was > 40 µM

---

Assay: In vivo pharmacokinetic experiment in mice
Settings: male, mouse, iv; C57 mice, 5 mg/kg i.v., plasma
QUANTITY_MEASURED: MRT (h)
Answers are plain numbers, in h.

Below: 3 compounds and their reported MRT.
Cl.N[C@@]1(c2ccccc2Cl)CCC[C@@H](O)C1=O [(2R,6R)-HNK, (2R, 6R)-HNK, reference compound]
0.39
Cl.N[C@]1(c2ccc(C(F)(F)F)cc2)CCC[C@H](O)C1=O
1.23
Cl.N[C@@]1(c2cccc(OC(F)(F)F)c2F)CCC[C@@H](O)C1=O
0.88

Field: next compound
MRT reading for `Cl.N[C@@]1(c2ccc(C(F)(F)F)cc2)CCC[C@@H](O)C1=O` : 1.29

---

Test: In vivo pharmacokinetic experiment in rats
Conditions: male, rat, po; SD rats, 10 mg/kg p.o., plasma
QUANTITY_MEASURED: MRT (h)
One number for each entry, in h.

Entry Cl.N[C@@]1(c2ccc(C(F)(F)F)cc2)CCC[C@@H](O)C1=O [Compound 50] — recorded MRT = 6.29

---

Assay: In vivo pharmacokinetic experiment in mice
Details: C57 mice, 5 mg/kg i.v., plasma
QUANTITY_MEASURED: AUC0-t (ngh/mL)
Numbers only, in ngh/mL.

Cl.N[C@@]1(c2cccc(OC(F)(F)F)c2F)CCC[C@@H](O)C1=O
4817
Cl.N[C@]1(c2ccc(C(F)(F)F)cc2)CCC[C@H](O)C1=O
6471
Cl.N[C@@]1(c2ccccc2Cl)CCC[C@@H](O)C1=O [(2R,6R)-HNK, (2R, 6R)-HNK, reference compound]
2085

Kindly consider the entry below.
Quick note, AUC0-t for `Cl.N[C@@]1(c2ccc(C(F)(F)F)cc2)CCC[C@@H](O)C1=O` landed at 3022
